Numbers sourced from patent US20240108746A1.

Biological target: T1, Biotinylated CD3-specific binding domain SEQ ID NO: 14 (biotinylated (site not stated))
T1 construct: Ligand on the neutravidin (NLC) SPR chip
T1 chain: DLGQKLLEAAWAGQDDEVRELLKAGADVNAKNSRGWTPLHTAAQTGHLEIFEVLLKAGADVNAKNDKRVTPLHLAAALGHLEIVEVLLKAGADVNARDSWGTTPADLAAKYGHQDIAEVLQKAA
Experiment: SPR (ProteOn XPR36), 33 C, multi-trace; biotinylated ligand on chip, binder as analyte
Procedure: Further SPR data were generated for Binders #1 to #9 (as listed in Example 1 above), binding to biotinylated CD3-specific binding domains having SEQ ID NOs: 13 and 14, respectively, on the chip. […] The blocking half-life (T_{1/2}) was then calculated.
Catalogue of kon values
State just the number; it will be interpreted in M⁻¹ s⁻¹.

Below, each entry is followed by its recorded kon result.
{"BINDER": "Binder #2 (designed binder) MRGSHHHHHHGSDLGKKLLQAARAGQLDEVRELLKAGADVNAKDFKGLTPLHLAAAHGHLEIVEVLLKAGADVNAKDVYGWTPLHWAAASGHLEIVEVLLKAGADVNAKDWLGITPLHLAASHGHLEIVEVLLKAGADVNAQDKSGKTPADLAARAGHQDIAEVLQKAA", "READOUT UNITS": "M⁻¹ s⁻¹", "kon": 630000}
{"BINDER": "Binder #1 (designed binder, expressed in E. coli and purified by its His-tag) MRGSHHHHHHGSDLGKKLLQAARAGQLDEVRELLKAGADVNAKDFKGLTPLHLAAAHGHLEIVEVLLKAGADVNAKDVYGWTPLHIAAASGHLEIVEVLLKAGADVNAKDWLGITPLHLAASHGHLEIVEVLLKAGADVNAQDKSGKTPADLAARAGHQDIAEVLQKAA", "READOUT UNITS": "M⁻¹ s⁻¹", "kon": 790000}
{"BINDER": "Binder #4 (designed binder) MRGSHHHHHHGSDLGKKLLQAARAGQLDEVRELLKAGADVNAKDFKGLTPLHLAAEHGHLEIVEVLLKAGADVNAKDVYGWTPLHWAAAKGHLEIVEVLLKAGADVNAKDWLGITPLHLAASHGHLEIVEVLLKAGADVNAQDKSGKTPADLAARAGHQDIAEVLQKAA", "READOUT UNITS": "M⁻¹ s⁻¹", "kon": 630000}

With those in mind, consider the next binder.
Query block: Fill blank: measured kon of the binder Binder #3 (designed binder) MRGSHHHHHHGSDLGKKLLQAARAGQLDEVRELLKAGADVNAKDFKGLTPLHLAAAHGHLEIVEVLLKAGADVNAKDVYGWTPLHWAAAKGHLEIVEVLLKAGADVNAKDWLGITPLHLAASHGHLEIVEVLLKAGADVNAQDKSGKTPADLAARAGHQDIAEVLQKAA is ____.
Result block: 650000
